src = patent US20260176319A1

molecular target: human GRP receptor (human, UniProt P30550 1-384); experiment: cell-based or functional assay
Sequence (P30550 whole entry): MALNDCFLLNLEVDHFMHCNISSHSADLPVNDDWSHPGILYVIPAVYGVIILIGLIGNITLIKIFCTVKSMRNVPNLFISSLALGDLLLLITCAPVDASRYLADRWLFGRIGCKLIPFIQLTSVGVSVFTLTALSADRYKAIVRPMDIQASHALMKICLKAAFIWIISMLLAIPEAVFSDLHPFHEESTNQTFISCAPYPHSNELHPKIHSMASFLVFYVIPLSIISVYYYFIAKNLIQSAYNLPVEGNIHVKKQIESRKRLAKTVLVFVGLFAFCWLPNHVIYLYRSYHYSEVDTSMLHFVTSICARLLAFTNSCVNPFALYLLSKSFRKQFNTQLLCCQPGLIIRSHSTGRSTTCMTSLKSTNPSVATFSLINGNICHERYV
Starred links: 1 amine or outer side, 2 acyl side, 3 side chain; linkers in the order of their positions; H or OH if unused. Non-standard residues stand in square brackets, D forms with d. *: point of attachment. C20 diacid = O=C(O)CCCCCCCCCCCCCCCCCCC(=O)*; αMeW = C[C@](N)(Cc1c[nH]c2ccccc12)C(=O)O; γGlu = O=C(O)[C@H](CCC(=O)[*:2])N[*:1]; Nle = CCCC[C@H](N)C(=O)O; AEEA = NCCOCCOCC(=O)O; βAla = NCCC(=O)O
experimental-endpoint: hIP1 GRPR EC50 (nM)
Give the number; nM is assumed, so skip it.

Fill in the blank: the reported hIP1 GRPR EC50 of {C20 diacid}-[γGlu][γGlu][AEEA][AEEA]GNH[αMeW]AV[βAla]HL[Nle]-NH2 (SMILES CCCC[C@H](NC(=O)[C@H](CC(C)C)NC(=O)[C@H](Cc1c[nH]cn1)NC(=O)CCNC(=O)[C@@H](NC(=O)[C@H](C)NC(=O)[C@](C)(Cc1c[nH]c2ccccc12)NC(=O)[C@H](Cc1c[nH]cn1)NC(=O)[C@H](CC(N)=O)NC(=O)CNC(=O)COCCOCCNC(=O)COCCOCCNC(=O)CC[C@H](NC(=O)CC[C@H](NC(=O)CCCCCCCCCCCCCCCCCCC(=O)O)C(=O)O)C(=O)O)C(C)C)C(N)=O) [Peptide 274] is ____. 4.9
